test system: Trypanosoma cruzi; assay: Trypanosoma cruzi phosphomannomutase and mannose-1-phosphate guanylyltransferase assay; format: functional; set-up: scale not given: direction of the effect not stated beside the values; conditions: 10 µM
In this section we review reported Percent Effect values for a set of compounds.
Respond numerically; units are % and should not be typed.

Answered examples (3):
INSERT INTO measurements (compound, result_number) VALUES
  ('O=C(NCC(O)CN1CCc2ccccc2C1)Nc1cccnc1 (stereo not drawn)', 0.294),
  ('Cn1ccnc1CN1CCN(Cc2cc(C#N)ccc2F)CC1', -9.38),
  ('CCn1cc(N)c(C(=O)NCc2cnn(C)c2)n1', -1.48);

Dear colleague, please send me the reported Percent Effect for Cc1ncc2c(n1)CN(CC(=O)Nc1ccncc1)CC2 when you can. 4.01

Dear colleague, please send me the reported Percent Effect for Cc1nnc2n1CCN(Cc1csc(-c3ccc(F)cc3)n1)C2 when you can. 8.26

Dear colleague, please send me the reported Percent Effect for CN1CCN(C[C@@H]2CN(C(=O)c3ccccc3C#N)C[C@@H]2CO)CC1 when you can. 7.86

Dear colleague, please send me the reported Percent Effect for CC(C)Cc1nc(OCC(N)=O)c(C#N)c2c1CCC2 when you can. -9.99

Dear colleague, please send me the reported Percent Effect for CN(C)S(=O)(=O)N1CC[C@]2(C[C@H](Oc3cccnc3)CO2)C1 when you can. 1.66

###

molecular target: Proteasome subunit beta (Trypanosoma cruzi) (UniProt O96673); test: Trypanosoma cruzi proteasome chymotrypsin-like activity (TcProtChymo) assay.; type: functional; design: scale not given: in the data most compounds retested in dose-response had high values; conditions: 9.37 µM
Sequence (O96673 as listed by the source): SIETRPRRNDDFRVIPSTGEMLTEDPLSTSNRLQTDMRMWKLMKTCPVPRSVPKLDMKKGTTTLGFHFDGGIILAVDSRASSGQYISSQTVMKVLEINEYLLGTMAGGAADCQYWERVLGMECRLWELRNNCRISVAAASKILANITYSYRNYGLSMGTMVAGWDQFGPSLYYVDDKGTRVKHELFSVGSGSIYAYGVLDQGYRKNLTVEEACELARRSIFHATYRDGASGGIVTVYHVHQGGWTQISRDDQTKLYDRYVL
In this section we review reported Percent Effect values for a set of compounds.
Respond numerically; units are % and should not be typed.

Answered examples (5):
INSERT INTO assay_data (compound, observable, result_number) VALUES
  ('Cn1ccc(CN2CCC(OCCc3ccccc3)CC2)cc1=O', 'Percent Effect', -5.41),
  ('Cn1ccc(C(=O)NCc2ccc(N3CCCC3)nc2)cc1=O', 'Percent Effect', 5.85),
  ('COc1cc(CN(C)C(=O)Cc2c(C)nn(C)c2C)ccc1OC(F)F', 'Percent Effect', 20.2),
  ('CC(C)(C)c1cn2nc(N3CCCC3Cn3cncn3)sc2n1 (stereo not given)', 'Percent Effect', 17.1),
  ('CCOc1ccnc(N2CCN(C(=O)c3cc(Cl)c[nH]3)CC2)n1', 'Percent Effect', 2.54);

Dear colleague, please send me the reported Percent Effect for NC(=O)c1ccc(CN2CCCC(N3CCCC3)C2)cc1 (stereo not given) when you can. 23.8

Dear colleague, please send me the reported Percent Effect for CN(C)C(=O)C1CCCN1CCCNC(=O)c1ccccc1F (stereo not given) when you can. 15.6

Dear colleague, please send me the reported Percent Effect for O=C(Cc1ccccc1F)N1CCN(C(=O)c2cccc(F)c2)CC1 when you can. 18.9

Dear colleague, please send me the reported Percent Effect for Cc1cc(C)n(C2CN(CC(=O)N(C)Cc3ccc(C)o3)C2)n1 when you can. 9.49

Dear colleague, please send me the reported Percent Effect for CN1CC2(CCN(Cc3ccoc3)CC2)COc2ccccc2S1(=O)=O when you can. 14.8

Dear colleague, please send me the reported Percent Effect for CCOc1cc(/C=C/c2ncc(C(=O)O)s2)cc(Cl)c1OC when you can. 12.3

Dear colleague, please send me the reported Percent Effect for Cc1cc(-c2ccc(C(=O)O)cc2)nc(C2CCCN(C(C)C)C2)n1 (stereo not given) when you can. 6.08

Dear colleague, please send me the reported Percent Effect for COc1ccc(CNC(=O)NC(C)Cn2cccn2)cc1O (stereo not given) when you can. 3.15

Dear colleague, please send me the reported Percent Effect for CS(=O)(=O)c1snnc1C1CCN(Cc2ccncc2)CC1 when you can. 9.83

###

In this section we review reported Percent Effect values for a set of compounds.
target: Tyrosyl-tRNA synthetase, putative (Trypanosoma cruzi (strain CL Brener)) (UniProt Q4DSP6); assay: Trypanosoma cruzi tyrosyl tRNA synthetase (TcYRS) _High Tyrosine SOP; format: functional; parameters: scale not given: in the data most compounds retested in dose-response had high values; details: 30 µM
Sequence (Q4DSP6 as listed by the source): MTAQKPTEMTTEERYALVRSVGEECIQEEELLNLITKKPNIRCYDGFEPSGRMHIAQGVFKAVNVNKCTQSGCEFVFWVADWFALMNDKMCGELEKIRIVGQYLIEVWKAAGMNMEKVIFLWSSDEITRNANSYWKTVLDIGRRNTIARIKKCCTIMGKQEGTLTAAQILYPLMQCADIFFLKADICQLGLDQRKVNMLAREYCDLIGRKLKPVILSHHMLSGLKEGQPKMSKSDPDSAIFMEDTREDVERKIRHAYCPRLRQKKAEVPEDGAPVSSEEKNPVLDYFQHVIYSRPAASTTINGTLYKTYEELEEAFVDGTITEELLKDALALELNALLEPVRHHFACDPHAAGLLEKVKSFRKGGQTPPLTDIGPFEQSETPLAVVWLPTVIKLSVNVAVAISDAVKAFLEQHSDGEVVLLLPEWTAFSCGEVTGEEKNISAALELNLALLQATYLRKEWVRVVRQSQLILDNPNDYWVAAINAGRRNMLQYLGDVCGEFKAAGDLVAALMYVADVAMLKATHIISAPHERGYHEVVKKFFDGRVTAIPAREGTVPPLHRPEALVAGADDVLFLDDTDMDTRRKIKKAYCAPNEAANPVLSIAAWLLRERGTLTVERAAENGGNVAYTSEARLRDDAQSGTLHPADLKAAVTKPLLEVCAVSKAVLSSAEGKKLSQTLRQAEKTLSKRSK
Respond numerically; units are % and should not be typed.

INSERT INTO assay_data (compound, target_or_test_system, result_number) VALUES
  ('O=C(c1cscn1)N1C[C@@H]2[C@@H](C1)OCC(=O)N2CC1CCCC1', 'Tyrosyl-tRNA synthetase, putative (Trypanosoma cruzi (strain CL Brener)) (UniProt Q4DSP6)', -87.1),
  ('Cc1ccc(-c2cc(N)c(=O)n(CC(=O)NCC3CCCCC3)n2)s1', 'Tyrosyl-tRNA synthetase, putative (Trypanosoma cruzi (strain CL Brener)) (UniProt Q4DSP6)', -6.45),
  ('CC(O)CN1CCN(C(=O)c2ccc(N(C)C)nn2)CC1 (stereo not given)', 'Tyrosyl-tRNA synthetase, putative (Trypanosoma cruzi (strain CL Brener)) (UniProt Q4DSP6)', 3.88),
  ('Cc1cc(C)n(CC2CN(Cc3cccc(C(N)=O)c3)CCO2)n1 (stereo not given)', 'Tyrosyl-tRNA synthetase, putative (Trypanosoma cruzi (strain CL Brener)) (UniProt Q4DSP6)', 7.92);

Now turn to the next compound.
Dear colleague, please send me the reported Percent Effect for O=C(C1CCOCC1)N1C[C@@H]2C[C@@H](c3nc(C4CC4)cs3)O[C@@H]2C1 when you can. 11.5

###

molecular target: Tyrosyl-tRNA synthetase, putative (Trypanosoma cruzi (strain CL Brener)); experiment: Trypanosoma cruzi tyrosyl tRNA synthetase (TcYRS) SOP; assay type: functional; set-up: scale not given: direction of the effect not stated beside the values; settings: 30 µM
observable: Percent Effect (%)
Respond numerically; units are % and should not be typed.

Answered examples (2):
INSERT INTO results (molecule, result_number) VALUES
  ('Cc1nc(C)n(CC2CN(Cc3cccc(C#N)c3)CCO2)n1 (stereo unspecified)', 18.5),
  ('Cc1ccccc1CN(C)Cc1nc2c(cnn2C)c(=O)[nH]1', 18.1);

Now turn to the next molecule.
Dear colleague, please send me the reported Percent Effect for Cc1ccc(CN2CCn3cc(CN(C)Cc4ccco4)nc3C2)o1 when you can. 11.5

###

species: Homo sapiens; experiment: To identify inhibition of the IFN signalling (Jak-Stat) pathway via expression of an eGFP reporter gene under the control of an IFN-stimulated response element (ISRE) containing MxA promoter.; format: functional; design: scale not given: direction of the effect not stated beside the values; conditions: 30 µM
observable: Percent Effect (%)
Respond numerically; units are % and should not be typed.

INSERT INTO measurements (compound, result_number) VALUES
  ('Cc1cc(N2CCC(c3nnc(CN(C)C)n3C3CC3)CC2)ccn1', -6.01),
  ('Cc1nn(C)c(C)c1NC(=O)CN1CCc2c(nc(C3CC3)n2C)C1', 1.97),
  ('CCC(=O)N1CCCC(c2cc(Nc3ncccn3)nc(C)n2)C1 (stereo unspecified)', -1.71);

Dear colleague, please send me the reported Percent Effect for CC(NC(=O)Cc1cccs1)c1nnc2n1CCCCC2 (stereo unspecified) when you can. -0.0451

Dear colleague, please send me the reported Percent Effect for Cc1ccc2cc(C3(O)CCN(C(=O)CN4CCCC4)CC3)ccc2n1 when you can. 4.91

Dear colleague, please send me the reported Percent Effect for CC(C)C(NC(=O)Cn1ccc(=O)n(C)c1=O)c1ccc(F)cc1 (stereo unspecified) when you can. 22.3

###

biological target: Chromo domain-containing protein 1 (Saccharomyces cerevisiae (strain ATCC 204508 / S288c) (Baker's yeast)) (UniProt P32657); assay: ScCHD-1 Enzyme Inhibition Assay; type: functional; design: scale not given: in the data most compounds retested in dose-response had high values; settings: 30 µM
Sequence (P32657 whole entry, the tested form may be a part): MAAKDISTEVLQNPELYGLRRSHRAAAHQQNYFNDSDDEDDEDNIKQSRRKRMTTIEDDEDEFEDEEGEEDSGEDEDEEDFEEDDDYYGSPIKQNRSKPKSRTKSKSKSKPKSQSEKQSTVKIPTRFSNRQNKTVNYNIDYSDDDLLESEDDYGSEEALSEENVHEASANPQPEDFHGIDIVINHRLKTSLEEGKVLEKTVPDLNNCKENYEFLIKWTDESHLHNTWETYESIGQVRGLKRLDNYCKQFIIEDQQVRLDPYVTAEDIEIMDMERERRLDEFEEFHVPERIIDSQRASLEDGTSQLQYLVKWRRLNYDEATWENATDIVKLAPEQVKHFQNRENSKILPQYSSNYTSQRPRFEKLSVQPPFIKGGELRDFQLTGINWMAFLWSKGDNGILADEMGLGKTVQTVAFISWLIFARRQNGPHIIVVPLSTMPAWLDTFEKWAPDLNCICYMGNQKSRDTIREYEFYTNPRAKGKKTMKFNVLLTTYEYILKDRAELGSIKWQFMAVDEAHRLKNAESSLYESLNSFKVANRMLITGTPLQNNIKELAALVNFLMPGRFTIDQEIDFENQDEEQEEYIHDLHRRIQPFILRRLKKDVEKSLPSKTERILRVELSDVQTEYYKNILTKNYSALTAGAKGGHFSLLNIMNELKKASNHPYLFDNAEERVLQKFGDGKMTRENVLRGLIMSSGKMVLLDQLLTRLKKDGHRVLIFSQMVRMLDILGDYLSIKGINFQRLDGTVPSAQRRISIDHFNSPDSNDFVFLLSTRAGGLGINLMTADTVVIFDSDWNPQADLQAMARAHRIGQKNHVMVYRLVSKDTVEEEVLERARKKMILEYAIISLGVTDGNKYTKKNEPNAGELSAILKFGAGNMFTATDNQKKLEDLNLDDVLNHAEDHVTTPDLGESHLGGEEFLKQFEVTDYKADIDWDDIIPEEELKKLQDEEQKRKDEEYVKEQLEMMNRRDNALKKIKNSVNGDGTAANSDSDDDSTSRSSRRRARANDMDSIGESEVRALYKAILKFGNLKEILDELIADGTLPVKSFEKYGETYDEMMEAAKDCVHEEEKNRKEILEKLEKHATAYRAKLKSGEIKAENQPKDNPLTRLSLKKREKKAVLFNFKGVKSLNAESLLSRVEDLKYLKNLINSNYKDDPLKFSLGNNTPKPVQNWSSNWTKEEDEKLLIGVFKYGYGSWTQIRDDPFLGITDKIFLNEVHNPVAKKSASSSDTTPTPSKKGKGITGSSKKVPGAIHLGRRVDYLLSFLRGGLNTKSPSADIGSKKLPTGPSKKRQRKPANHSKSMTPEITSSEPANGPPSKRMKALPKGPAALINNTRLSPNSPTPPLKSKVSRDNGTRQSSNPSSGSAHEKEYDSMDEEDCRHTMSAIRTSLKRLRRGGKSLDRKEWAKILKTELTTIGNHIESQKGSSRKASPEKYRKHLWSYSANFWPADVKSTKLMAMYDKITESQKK
observable: Percent Effect (%)
Respond numerically; units are % and should not be typed.

Answered examples (5):
INSERT INTO assay_data (compound, observable, result_number) VALUES
  ('c1cnc(-c2nc(CNCCn3cccn3)cs2)nc1', 'Percent Effect', -6.78),
  ('CS(=O)(=O)c1ccc(C(O)CN2CCC(c3ccn[nH]3)CC2)cc1 (configuration not stated)', 'Percent Effect', -6.15),
  ('O[C@]1(c2ccccn2)CC[C@@H]2CN(Cc3cccc4ncccc34)C[C@@H]21', 'Percent Effect', -13.1),
  ('O=C(C1CCCCC1)N1CCC2(CCCN2CC2CC2)CC1', 'Percent Effect', -6.38),
  ('CC(C)(C)C(=O)Cn1nc(-c2ccccc2F)ccc1=O', 'Percent Effect', -6.12);

Dear colleague, please send me the reported Percent Effect for Cc1ccsc1C(=O)NCCCn1nc2ccccn2c1=O when you can. -8.98

###

target: Protein translocase subunit SecA (Escherichia coli (strain K12)); assay: Assay to Identify E. coli SecA ATPase Inhibitors; assay type: functional; design: scale not given: direction of the effect not stated beside the values; details: 30 µM
Results with a measured potency or affinity are listed apart.
In this section we review reported Percent Effect values for a set of compounds.
Respond numerically; units are % and should not be typed.

Answered examples (3):
INSERT INTO results (compound, target_or_test_system, result_number) VALUES
  ('CCc1noc(C(C)N2CCN(c3ccc(C#N)cc3F)CC2)n1 (configuration not stated)', 'Protein translocase subunit SecA (Escherichia coli (strain K12))', -1.97),
  ('CC(C)(C)c1cn2nc(N3CCC[C@@H]3CO)sc2n1', 'Protein translocase subunit SecA (Escherichia coli (strain K12))', -2.65),
  ('O=C1CC(c2cccc(O)c2)c2sc(C(=O)O)c(-c3ccccc3)c2N1 (configuration not stated)', 'Protein translocase subunit SecA (Escherichia coli (strain K12))', 7.88);

Give Percent Effect for Cc1cc2n(n1)CC(CNC1CCN(c3ccc(F)cc3)CC1)CN2 (configuration not stated) tested on Protein translocase subunit SecA (Escherichia coli (strain K12)). -2.69

Give Percent Effect for COCCN1CCN(Cc2cccc(C(N)=O)c2)CC1C (configuration not stated) tested on Protein translocase subunit SecA (Escherichia coli (strain K12)). -2.01

Give Percent Effect for O=C(NCc1nnc2n1CCCC2)N(Cc1ccccc1F)C1CC1 tested on Protein translocase subunit SecA (Escherichia coli (strain K12)). -2.88

Give Percent Effect for CCc1ccc(O)c(C(=O)NC2CCN(Cc3ccncc3)CC2)c1 tested on Protein translocase subunit SecA (Escherichia coli (strain K12)). -1.01

Give Percent Effect for Cn1cc(C(=O)NC2CCN(C(=O)NCC3CCSCC3)CC2)cn1 tested on Protein translocase subunit SecA (Escherichia coli (strain K12)). -7.28

Give Percent Effect for CC(C(=O)N1CCCN(c2ncccc2C#N)CC1)n1ccnc1 (configuration not stated) tested on Protein translocase subunit SecA (Escherichia coli (strain K12)). -2.42

Give Percent Effect for Cn1cc(Br)c(=O)c(NS(=O)(=O)c2cc(F)ccc2Cl)c1 tested on Protein translocase subunit SecA (Escherichia coli (strain K12)). -3.11

Give Percent Effect for COc1cccc2c1ccn2CCC(=O)NCCCC(=O)O tested on Protein translocase subunit SecA (Escherichia coli (strain K12)). -1.03

Give Percent Effect for COc1ccc(CN2C[C@H](OCC3CCOCC3)[C@H]3COC[C@H]32)cc1 tested on Protein translocase subunit SecA (Escherichia coli (strain K12)). -0.325

Ref: ChEMBL document CHEMBL3988442
